Values from the supplement of paper PMC10567573

The entries below are paired with their reported protein stability index.
B1: TOR1AIP2 (parent)
chain: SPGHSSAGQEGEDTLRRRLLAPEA

Variants of: B1
Experiment: protein stability index of a GFP-peptide fusion (GPS, HEK-293T) (PSI 1-6); higher = more stable;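 also: lentivirally expressed fusions sorted by FACS into six bins by GFP to DsRed ratio, PSI derived from sequencing read proportions per bin multiplied by bin number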
Settings: c terminus: a fixed tail appended
Form field (numeric): enter value without unit.

>  <changes>
E10G

>  <reported-measurement>
3.91

$$$$

Which protein stability index reading was recorded for the variant E10S ?
4.06

Which protein stability index reading was recorded for the variant E12C ?
4
